Overview of reported TGI across a group of compounds:
system: HL-60(TB) leukemia; assay: NCI tumour cell line growth inhibition, 48 h
measurementKind: TGI (µM)

- COC(=O)c1sc2c(c1C(=O)OC)C(=NC(C)(C)C)SC2=NC(C)(C)C: 28.6
- CC(C)N1C(C)[C@@H](c2ccccc2)O[P@@]1(=O)CC1=CCCCC1 (stereo partly specified): 63.7
- O=c1oc2ccccc2c(O)c1C(c1cccc(C(c2c(O)c3ccccc3oc2=O)c2c(O)c3ccccc3oc2=O)c1)c1c(O)c2ccccc2oc1=O: 45.8
- C=C1C(=O)O[C@@H]2CC(CO)=C([C@@H](C)CCCO)[C@@H](OC(=O)/C(C)=C\C)[C@H]12: 4.86

* * *

system: SR leukemia; assay: NCI tumour cell line growth inhibition, 48 h; in the data active means GI50 below about 0.43 µM; inactive means the rest
Outcomes: 1 = active, 0 = inactive

* C#CCOc1cccc(Nc2ncnc3cc(NC(=O)C=C)ccc23)c1 | 0
* OC(CN1CCCC2CCCCC21)c1cc2ccccc2c2ccccc12 (stereo not drawn) | 0
* O=C(NCc1ccco1)C1CCN(S(=O)(=O)c2ccc(Cl)cc2)CC1 | 0
* COC(=O)c1c2c(c(C)[n+]([O-])c1C)C(=O)C(NCc1ccc(F)cc1)=CC2=O | 0
* C[C@@]1(C(=O)O)CCC[C@]2(C)C1CC[C@]13C[C@@](O)(CO)[C@](O)(CC[C@]12O)C3 (stereo partly drawn) | 0
* Cc1ccnc2c(NC(C)CCCN)cc(O)c(O)c12 (stereo not drawn) | 0
* Cn1cc(C2=C(c3cc[nH]c3)C(=O)NC2=O)c2ccccc21 | 0
* O=C(N=Nc1c(Cl)c(O)c2ccccc2c1O)C(=O)Nc1cccc(C(F)(F)F)c1 | 0
* CN(C)c1cc2c(Nc3ccc4c(cnn4Cc4ccccc4)c3)ncnc2cn1 | 0
* O=C1C(Cl)=C(Nc2cc(Cl)ccc2O)C(=O)N1Cc1ccccc1 | 0
* CCC[CH2][Sn]([CH2]CCC)([O]C(=O)c1cc(F)ccc1F)[O]C(=O)c1cc(F)ccc1F | 0
* CC[C@]1(O)C[C@H]2CN(CCc3c([nH]c4ccccc34)[C@@](C(=O)OC)(c3cc4c(cc3OC)N(C)[C@H]3[C@@](O)(C(=O)OC)[C@H](OC(C)=O)[C@]5(CC)C=CCN6CC[C@]43[C@@H]65)C2)C1 | 1
* Cc1nn(Cc2ccccc2)cc1C(=O)Nc1sc2c(c1C(N)=O)CCC(=O)C2 | 0

* * *

Property: TGI; scope: individual molecules
system: MDA-N; experiment: NCI tumour cell line growth inhibition, 48 h
measurementKind: TGI (µM)

• CN(C)CCNC(=O)c1cccc2c1Oc1cccc([N+](=O)[O-])c1O2 = 31.6
• CC1(C)OC[C@H](COCOP2(=O)Oc3ccc4ccccc4c3-c3c(ccc4ccccc34)O2)O1 = 26.8
• O=C(OCc1ccccc1)c1ccc(NCc2cc(O)ccc2O)cc1 = 4.6
• O=[N+]([O-])C(C(Cl)=C(Cl)Cl)=C(n1nnc2ccccc21)n1nnc2ccccc21 = 61.2

* * *

system: DU-145 prostate; test: NCI tumour cell line growth inhibition, 48 h
Each item that follows carries a reported GI50.
measurementKind: GI50

- Cc1cc(Cl)nc(N(CCCNc2ccnc3cc(Cl)ccc23)Cc2cccs2)n1: 2.23 µM
- COc1cc2c3c(n(CCN4CCOCC4)c(=O)c2cc1OC)-c1ccccc1C3=O: > 100 µM
- COC(=O)c1ccc(NC(=O)c2ccc(NC3=C(Cl)C(=O)N(Cc4ccccc4)C3=O)cc2)cc1: 17.4 µM
- CCC[n+]1cc2cc3c(cc2c2c1-c1cc4c(cc1C2)OCO4)OCO3 (tested in a mixture with another compound): 1.27 µM
- O=C(CSC(c1ccccc1)c1ccccc1)N/N=C/c1ccccc1Cl: 50.6 µM
- COc1cccc(N2CCN(c3ncnc4cc[nH]c34)CC2)c1: 43.2 µM
- CC1=NN(c2cccc(Cl)c2)C(=O)/C1=C\C=C\c1ccccc1: 2.91 µM
- OC(CN1CCCC2CCCCC21)c1cc2ccccc2c2ccccc12 (stereo not given): 3.73 µM
- O=C1C(Cl)=C(Nc2cc(Cl)ccc2O)C(=O)N1Cc1ccccc1: 18 µM
- Cc1ccc(N=Nc2c(O)ccc3n[nH]nc23)cc1: 16.1 µM

* * *

test system: LOX IMVI melanoma; assay: NCI tumour cell line growth inhibition, 48 h; in the data active means GI50 below about 0.43 µM; inactive means the rest
Outcome codes: active, inactive

• [Cl][Hg][c]1ccc2ccccc2c1 = active
• CSc1nnc(-c2cc3c([nH]c4ccccc43)c(-c3cccc(O)c3)n2)n1-c1ccc(C)cc1 = inactive
• O=C(N=Nc1c(Cl)c(O)c2ccccc2c1O)C(=O)Nc1cccc(C(F)(F)F)c1 = inactive
• CCN(CC)S(=O)(=O)c1cccc(-c2ccc3c(NC(=O)C4CC4)n[nH]c3c2)c1 = inactive
• Cc1nn(Cc2ccccc2)cc1C(=O)Nc1sc2c(c1C(N)=O)CCC(=O)C2 = inactive
• OC(CN1CCCC2CCCCC21)c1cc2ccccc2c2ccccc12 (stereo not given) = inactive
• COc1ccc(/C=C\c2cc(OC)c(OC)c(OC)c2)cc1OC(=O)CC(N)C(=O)O (stereo not given) = active
• O=c1cc(-c2ccccc2)oc2cc(OCCCCCN3CCOCC3)cc(O)c12 = inactive
• O=C(N/N=C/c1cc(Cl)ccc1O)c1ccccc1Nc1ccnc(C(F)(F)F)c1 = active
• O=C(CSC(c1ccccc1)c1ccccc1)N/N=C/c1ccccc1Cl = inactive
• Cc1cc(Cl)nc(N(CCCNc2ccnc3cc(Cl)ccc23)Cc2cccs2)n1 = inactive
• CC(C)(C)C(=O)c1c(C(F)(F)F)n([O-])c2cc(Cl)c(Cl)cc2[n+]1=O = inactive
• C[C@@]1(C(=O)O)CCC[C@]2(C)C1CC[C@]13C[C@@](O)(CO)[C@](O)(CC[C@]12O)C3 (stereo not given in full) = inactive
• C(=C\c1ccncc1)/c1ccncc1 = inactive
• CC(C)c1[nH]nc2c(NCc3ccc(-c4ccccn4)cc3)nc(SCCN(C)C)nc12 = active

* * *

tested on: NCI-H460 lung
Labels: YES (active), NO (inactive)

* COc1cc(C2c3cc4c(cc3[C@@H](Nc3ccc([N+](=O)[O-])cc3)C3COC(=O)[C@H]23)OCO4)cc(OC)c1O (some centres undefined) | YES
* COc1ccc2c(CCCc3ccc(Cl)cc3Cl)c3[n+](cc2c1OC)CCc1cc2c(cc1-3)OCO2 | YES
* Cc1c(Cl)cccc1NC(=O)c1sc2nc3c(cc2c1N)C(=O)CCC3 | YES
* COC(=O)c1ccc(NC(=O)c2ccc(NC3=C(Cl)C(=O)N(Cc4ccccc4)C3=O)cc2)cc1 | NO
* CCC[CH2][Sn]([CH2]CCC)([O]C(=O)c1cc(F)ccc1F)[O]C(=O)c1cc(F)ccc1F | NO
* CNCC(=O)NC(CO)C(=O)NC(CO)C(=O)NC1C(C(N)=O)OC(n2ccc(N)nc2=O)C(O)C1O (centres undefined) | NO
* COC(=O)c1c2c(c(C)[n+]([O-])c1C)C(=O)C(NCc1ccc(F)cc1)=CC2=O | NO
* Cc1cc(-c2nc3n(c2/C=N/N=C(N)N)CCS3)c(C)s1 | NO
* O=C(N=Nc1c(Cl)c(O)c2ccccc2c1O)C(=O)Nc1cccc(C(F)(F)F)c1 | NO
* CCC[n+]1cc2cc3c(cc2c2c1-c1cc4c(cc1C2)OCO4)OCO3 (tested in a mixture with another compound) | YES
* C(=C\c1ccncc1)/c1ccncc1 | NO
* Cc1ccc(N=Nc2c(O)ccc3n[nH]nc23)cc1 | NO
* Cc1nc2sc(C(=O)Nc3ccccc3)c(N)c2cc1C(O)c1ccccc1 (centres undefined) | YES
* CC(=O)O[C@@H]1C2=C(C)C3(CC3)[C@@](C)(O)C(=O)C2=C[C@@]1(C)CO | YES
* COc1cccc(N2CCN(c3ncnc4cc[nH]c34)CC2)c1 | NO
* COc1cc2c(NC3CCN(C(C)C)CC3)nc(C3CCCCC3)nc2cc1OCCCN1CCCC1 | NO
* CN(C)c1cc2c(Nc3ccc4c(cnn4Cc4ccccc4)c3)ncnc2cn1 | NO
* COc1c(B(O)O)cccc1-c1nc2ccc3[nH]ncc3c2c2c1CCCC2 | NO
* CN(C)CC1C(=O)O[C@H]2[C@H]1CC/C(COC(=O)NCc1ccc(Cn3c(=O)sn(CCCI)c3=O)cc1)=C\CC[C@@]1(C)O[C@@H]21 (some centres undefined) | NO

* * *

test system: UACC-62 melanoma; experiment: NCI tumour cell line growth inhibition, 48 h
measurementKind: TGI

- COc1ccc(C2Oc3c(cccc3-c3c(-c4ccc(O)cc4)oc4cc(O)cc(O)c4c3=O)C(=O)C2O)cc1O (stereo unspecified): > 100 µM
- c1ccc2c(c1)SCCc1cn[nH]c1-2: > 100 µM
- c1csc(-c2ccc(CNc3c4ccccc4nc4ccccc34)cc2)c1: 27 µM
- CN(/N=C/C=N/N(C)C1=NCCCN1)C1=NCCCN1: > 100 µM
- CC(C)=CCC/C(C)=C/Cc1c(O)c(C)cc2c1[nH]c1cc(O)ccc12: > 25 µM
- CC(Cc1ccccc1)N(C)Cc1nc(C2CCC([N+](=O)[O-])O2)no1 (stereo unspecified): 22.1 µM
- CC(=Nc1cccc(Cl)c1)c1ccncc1: > 100 µM
- Cc1ccc(Nc2nc(=O)c3c([nH]c4ccccc43)s2)cc1: 21 µM
- O=C1NC2C3CC(OCc4ccccc4)(OCc4ccccc4)C2OC3O1 (stereo unspecified): > 50 µM
- Cc1c(NC(=O)Nc2c(Cl)cccc2Cl)c(=O)n(-c2ccccc2)n1C: > 100 µM
- O=C1c2ccn(CCCNC(CO)(CO)CO)c2C(=O)c2c1c(O)c1ccccc1c2O: > 61.3 µM
- Nc1ccc(Cn2ccc3c4c(N)nc(N)nc4ccc32)cc1: 1.5 µM
- O=C1N/C(=N\N=C\c2ccccc2)C2(CCCCC2)O1: > 100 µM
- CN(CCCN1C(=O)c2cccc3cc([N+](=O)[O-])cc(c23)C1=O)CCN(C)CCCN1C(=O)c2cccc3cc([N+](=O)[O-])cc(c23)C1=O: > 39.3 µM
- CC(=O)N1C(CCc2ccccc2)CC(C)(C=O)C1Cc1ccc(O[Si](C(C)C)(C(C)C)C(C)C)cc1 (stereo unspecified): 16.3 µM
- O=C(N=Nc1c(Cl)c(O)c2ccccc2c1O)C(=O)Nc1cccc(C(F)(F)F)c1: 16.2 µM
- CN(C)c1cc2c(Nc3ccc4c(cnn4Cc4ccccc4)c3)ncnc2cn1: 19.9 µM
- CN(C)c1cccc(OC(=O)NCCCl)c1: > 100 µM
- Cc1cccc2c1Sc1ccccc1C2NC(=O)CN(C)C (stereo unspecified): > 100 µM
- Cn1cc(C2=C(c3cc[nH]c3)C(=O)NC2=O)c2ccccc21: > 25 µM
- CC(=O)O[C@@H]1C2=C(C)C3(CC3)[C@@](C)(O)C(=O)C2=C[C@@]1(C)CO: 3.59 µM
